Subject of test: T1, TGFβ2 (R&D Systems)
T1 construct: also called TGFB2
T1 sequence (P61812 303-414, species assumed, looked up): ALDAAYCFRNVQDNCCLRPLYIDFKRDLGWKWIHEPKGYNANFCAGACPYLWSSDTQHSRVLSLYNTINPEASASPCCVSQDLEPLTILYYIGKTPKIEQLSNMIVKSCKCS
Assay details: SPR full titration
Measure: Kd (nM)
Respond with the bare value in nM.

Binder	Scale unit	Kd
affinity matured HcLb 271 (antibody, V domains shown, full IgG; also called canHcLb/55SW/100DY/57SM/30IM/31TF + canHcLb/237ND/242TS) VH: EVQLVQSGAEVKKPGASVKVSCKTSGYTFMFYWMNWVRQAPGAGLDWMGQIFPAWGMTNYNEMFEGRVTLTADTSTSTAYMELSSLRAGDIAVYYCARGYGNYALDAMDYWGQGTLVTVSS VL: DIVMTQTPPSLSVSPRETASISCRASESVDSYGNSFMHWYLQKPGQSPQLLIYLASNLESGVSDRFSGSGSGTDFTLRISRVEANDTGVYYCQQNDEDPLSFGQGTK	nM	1.28
affinity matured HcLb 265 (antibody, V domains shown, full IgG; also called canHcLb/55SW/100DY/30IM/31TK/57SM + canHcLb/237ND/242TS) VH: EVQLVQSGAEVKKPGASVKVSCKTSGYTFMKYWMNWVRQAPGAGLDWMGQIFPAWGMTNYNEMFEGRVTLTADTSTSTAYMELSSLRAGDIAVYYCARGYGNYALDAMDYWGQGTLVTVSS VL: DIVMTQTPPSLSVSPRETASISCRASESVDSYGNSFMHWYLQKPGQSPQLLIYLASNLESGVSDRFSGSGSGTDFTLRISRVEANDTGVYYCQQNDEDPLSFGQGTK	nM	2.82
affinity matured HcLb 262 (antibody, V domains shown, full IgG; constant regions not restated) VH: EVQLVQSGAEVKKPGASVKVSCKTSGYTFIKYWMNWVRQAPGAGLDWMGQIFPAWGSTNYNEMFEGRVTLTADTSTSTAYMELSSLRAGDIAVYYCARGYGNYALDAMDYWGQGTLVTVSS VL: DIVMTQTPPSLSVSPRETASISCRASESVDSYGNSFMHWYLQKPGQSPQLLIYLASNLESGVSDRFSGSGSGTDFTLRISRVEANDTGVYYCQQNNEDPLTFGQ	nM	6.73
affinity matured HcLb 261 (antibody, V domains shown, full IgG; constant regions not restated) VH: EVQLVQSGAEVKKPGASVKVSCKTSGYTFMTYWMNWVRQAPGAGLDWMGQIFPAWGSTNYNEMFEGRVTLTADTSTSTAYMELSSLRAGDIAVYYCARGYGNYALDAMDYWGQGTLVTVSS VL: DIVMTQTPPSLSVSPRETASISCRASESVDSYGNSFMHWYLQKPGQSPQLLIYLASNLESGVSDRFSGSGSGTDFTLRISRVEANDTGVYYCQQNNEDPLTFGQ	nM	3.92

Find the recorded Kd belonging to affinity matured HcLb 272 (antibody, V domains shown, full IgG; also called canHcLb/55SW/100DY/57SM/30IM/31TF/28TK + canHcLb/237ND/242TS) VH: EVQLVQSGAEVKKPGASVKVSCKTSGYKFMFYWMNWVRQAPGAGLDWMGQIFPAWGMTNYNEMFEGRVTLTADTSTSTAYMELSSLRAGDIAVYYCARGYGNYALDAMDYWGQGTLVTVSS VL: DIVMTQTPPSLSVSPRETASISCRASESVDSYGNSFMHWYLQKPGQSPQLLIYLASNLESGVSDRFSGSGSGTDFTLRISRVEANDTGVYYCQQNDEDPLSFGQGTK and report it.
2.02

affinity matured HcLb 233 (antibody, V domains shown, full IgG; also called canHcLb/55SW/100DY/57/SM + canHcLb/237ND/242TS) VH: EVQLVQSGAEVKKPGASVKVSCKTSGYTFITYWMNWVRQAPGAGLDWMGQIFPAWGMTNYNEMFEGRVTLTADTSTSTAYMELSSLRAGDIAVYYCARGYGNYALDAMDYWGQGTLVTVSS VL: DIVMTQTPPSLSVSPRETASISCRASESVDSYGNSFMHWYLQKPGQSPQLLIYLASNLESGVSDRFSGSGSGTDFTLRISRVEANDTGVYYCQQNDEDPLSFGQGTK ?
3.98

affinity matured HcLb 188 (antibody, V domains shown, full IgG; constant regions not restated) VH: EVQLVQSGAEVKKPGASVKVSCKTSGYTFITYWMNWVRQAPGAGLDWMGQIFPAWGSTNYNEMFEGRVTLTADTSTSTAYMELSSLRAGDIAVYYCARGYGNYALDAMDYWGQGTLVTVSS VL: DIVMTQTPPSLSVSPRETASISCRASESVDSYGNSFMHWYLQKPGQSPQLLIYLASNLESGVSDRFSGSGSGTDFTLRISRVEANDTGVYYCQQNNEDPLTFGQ ?
0.937

affinity matured HcLb 257 (antibody, V domains shown, full IgG; also called canHcLb/55SW/100DY/30IM/31TK + canHcLb/237ND/242TS) VH: EVQLVQSGAEVKKPGASVKVSCKTSGYTFMKYWMNWVRQAPGAGLDWMGQIFPAWGSTNYNEMFEGRVTLTADTSTSTAYMELSSLRAGDIAVYYCARGYGNYALDAMDYWGQGTLVTVSS VL: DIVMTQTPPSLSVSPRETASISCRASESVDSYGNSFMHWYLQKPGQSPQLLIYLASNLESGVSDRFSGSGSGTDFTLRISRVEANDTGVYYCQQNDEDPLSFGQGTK ?
4.72

affinity matured HcLb 268 (antibody, V domains shown, full IgG; constant regions not restated) VH: EVQLVQSGAEVKKPGASVKVSCKTSGYIFMKYWMNWVRQAPGAGLDWMGQIFPAWGMTNYNEMFEGRVTLTADTSTSTAYMELSSLRAGDIAVYYCARGYGNYALDAMDYWGQGTLVTVSS VL: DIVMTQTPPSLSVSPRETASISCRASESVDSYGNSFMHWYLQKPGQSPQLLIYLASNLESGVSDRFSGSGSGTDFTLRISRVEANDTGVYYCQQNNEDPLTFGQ ?
3.96

affinity matured HcLb 263 (antibody, V domains shown, full IgG; constant regions not restated) VH: EVQLVQSGAEVKKPGASVKVSCKTSGYIFITYWMNWVRQAPGAGLDWMGQIFPAWGSTNYNEMFEGRVTLTADTSTSTAYMELSSLRAGDIAVYYCARGYGNYALDAMDYWGQGTLVTVSS VL: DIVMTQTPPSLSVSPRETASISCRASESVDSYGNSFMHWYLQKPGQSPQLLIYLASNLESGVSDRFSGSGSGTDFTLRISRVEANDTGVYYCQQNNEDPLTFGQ ?
2.91
